Tested on: human red blood cells
methodNotes: Cytotoxicity: hemolysis of human red blood cells
Type: cell-based
Experimental: The cytotoxicity of the selected IAPS was performed using human red blood cells in strict accordance with relevant guidelines and regulations (Ethical committee – UnB # 1.939.989). Different concentrations of IAPs (128 µM–0.5 µM) were incubated with a final concentration of 2.5 × 10^5 red blood cells.mL^−1. […] Microplate reading was performed at a BioTek Multireader, using a wavelength of 540 nm. […]
No end group written: not given here.
Consider the following substances; for each one, report its Hemolytic activity of human red blood cells (%) SC50.

The substance identified as ANRLLEAYKMLLKFLGNLR-NH2 [Gr02] registered its Hemolytic activity of human red blood cells (%) SC50 at 64 µM

Note to self: Hemolytic activity of human red blood cells (%) SC50 recorded for KVLSKVHTLLKAVLAL-NH2 [At02] was >128 µM

Consider GSLHGFMYRYLKNMVLNLF-NH2 [Cs01] . Its measured Hemolytic activity of human red blood cells (%) SC50 is >128 µM

Hemolytic activity of human red blood cells (%) SC50 in this record for GKILKYLLYLLRKYANLIIR-NH2 [Tc02] : 64 µM

Hemolytic activity of human red blood cells (%) SC50 reported for this substance IKLRNVLKYLFRIDVIKEDIL-NH2 [Tc03] : >128 µM

# Hemolytic activity of human red blood cells (%) SC50 (substance: FFYNVIKIYGNMAGRISK-NH2 [Cs03] ) is >128 µM
